Conditions: in acetone, 328.15 K
observed_property: solubility (mole fraction)
One number for each entry.

Request: Look up solubility (mole fraction) for this compound: `CC(C)[C@H](N)C(=O)O`
Response: 3.97e-06

---

Details: in water, 333.25 K
observed_property: solubility (mole fraction)
Give bare numbers.

Request: Record request: solubility (mole fraction) value, item `CC(C)[C@H](N)C(=O)O`
Response: 0.0117

---

Conditions: in isopropanol, 313.35 K
observed_property: solubility (mole fraction)
Give bare numbers.

Request: # query: solubility (mole fraction) of entry `CC(C)[C@H](N)C(=O)O`
Response: 7.17e-06

---

Details: in ethanol, 313.15 K
observed_property: solubility (mole fraction)
Give bare numbers.

Request: Reported solubility (mole fraction), molecule `CC(C)[C@H](N)C(=O)O` : ____
Response: 3.69e-05

---

Settings: in isopropanol, 323.25 K
observed_property: solubility (mole fraction)
One number for each entry.

Request: I have this compound here, `CC(C)[C@H](N)C(=O)O` , and I need its recorded solubility (mole fraction).
Response: 1.08e-05

---

Details: in isopropanol, 333.05 K
observed_property: solubility (mole fraction)
One number for each entry.

Request: What does the data say about its solubility (mole fraction)? Entry: `CC(C)[C@H](N)C(=O)O`
Response: 1.54e-05

---

Conditions: in ethanol, 343.25 K
observed_property: solubility (mole fraction)
One number for each entry.

Request: So what does the record say about solubility (mole fraction) for `CC(C)[C@H](N)C(=O)O` ?
Response: 0.000109

---

Details: in acetone, 313.35 K
observed_property: solubility (mole fraction)
Give bare numbers.

Request: Reported solubility (mole fraction), compound `CC(C)[C@H](N)C(=O)O` : ____
Response: 1.98e-06

---

Conditions: in isopropanol, 303.05 K
observed_property: solubility (mole fraction)
Answers are plain numbers.

Request: Which solubility (mole fraction) value belongs to `CC(C)[C@H](N)C(=O)O` ?
Response: 4.61e-06

---

Conditions: in water, 343.15 K
observed_property: solubility (mole fraction)
Give bare numbers.

Request: Need solubility (mole fraction) of `CC(C)[C@H](N)C(=O)O` , thanks.
Response: 0.0129

---

Conditions: in water, 323.05 K
observed_property: solubility (mole fraction)
Give bare numbers.

Request: State the recorded solubility (mole fraction) for this entry: `CC(C)[C@H](N)C(=O)O`
Response: 0.0109

---

Details: in water, 303.05 K
observed_property: solubility (mole fraction)
One number for each entry.

Request: So what's the measured solubility (mole fraction) for this one? `CC(C)[C@H](N)C(=O)O`
Response: 0.00938

---

Details: in isopropanol, 293.45 K
observed_property: solubility (mole fraction)

Request: Fill in: solubility (mole fraction) of `CC(C)[C@H](N)C(=O)O` is ___
Response: 2.56e-06

---

Settings: in DMF, 313.25 K
observed_property: solubility (mole fraction)

Request: Which solubility (mole fraction) value belongs to `CC(C)[C@H](N)C(=O)O` ?
Response: 4.36e-06

---

Settings: in DMF, 333.25 K
observed_property: solubility (mole fraction)
Give bare numbers.

Request: Which value of solubility (mole fraction) has been reported for `CC(C)[C@H](N)C(=O)O` in the records?
Response: 1.06e-05
